- System: NCI-H23 lung
- procedure-details: NCI-60 one-dose screen, 48 h (100 = growth as untreated, 0 = no growth, -100 = all killed)
- condition-notes: 10 µM unless noted
About 83,000 compounds went through this panel and 20% of them were active in at least one assay; those are over-represented in the sample as a whole.
measurement-name: growth (%)
Report the value in % with no unit label.

# count of solved cases: 4
| compound | growth [%] |
| --- | --- |
| COC(=O)[C@@H](C)C[C@H](Cc1ccccc1)NC(=O)c1csc([C@@H](C[C@H](C(C)C)N(C)C(=O)C2(NC(=O)[C@H]3CCCCN3C)CCC2)OC(C)=O)n1 | 18.6 |
| C[C@]12C[C@@H](CO)[C@H](O)C[C@@H]1CC[C@@H]1[C@@H]2CC[C@]2(C)[C@@H](O)CC[C@@H]12 | 102 |
| O=C1NC(=O)C(=Cc2cn(CCCCCCn3c4ccccc4c(=O)c4ccccc43)c3ccccc23)C(=O)N1 | 82.5 |
| Cc1ccc2c(C(C[N+](=O)[O-])c3cccs3)c(-c3ccccc3)[nH]c2c1 (stereo not given) | 38.4 |

Ask: Fill in the blank: the reported growth of O=C1C=C2C(=CCOC2O)O1 (stereo not given) is ____.
Result: 60.4

Ask: Fill in the blank: the reported growth of O=[N+]([O-])c1ccc(OP(=O)(CCl)N(CCCl)CCCl)cc1 (stereo not given) is ____.
Result: 108

Sourced from PubChem BioAssay (NCI)
